Please provide measured TGI for the entries that follow.
# Test system: SF-268 CNS
# Test: NCI tumour cell line growth inhibition, 48 h

INSERT INTO measurements (molecule, target, reported_measurement) VALUES
  ('Clc1ccc(OCc2nnc(CCCCCCCCc3nnc(COc4ccc(Cl)cc4Cl)o3)o2)c(Cl)c1', 'SF-268 CNS', '> 100 µM');

Below are 4 molecules. Give each one its TGI.
1. COC(=O)/C(=N/NC(C)(C)C)C(C(=O)C=C(C)C)C(=O)C(=O)Nc1ccc(Cl)cc1C (centres undefined)
2. O=c1c(OC/C(=N/O)c2ccccc2)c(-c2ccccc2)oc2ccccc12
3. Cc1nn(-c2ccccc2)c(C)c1/C=N/NC(=O)c1sc(=S)n(-c2ccccc2)c1N
4. COc1cccc(/C=C/C2=NN(c3cccc(S(=O)(=O)O)c3)C3(C2)SCC(=O)N3c2nc3ccccc3s2)c1 (centres undefined)

Output line:
1. > 100 µM
2. 25 µM
3. > 100 µM
4. > 100 µM

---

Please provide measured log10 of TGI for the entries that follow.
# Test system: RPMI-8226 leukemia
# Test: NCI tumour cell line growth inhibition, 48 h
Quick note: numbers are log10 of TGI, with µM as the unit.

Example cases with answers are listed next.
INSERT INTO measurements (compound, target, endpoint_label, reported_measurement) VALUES
  ('COc1cccc(C2c3cc4c(cc3OC(N3CCOCC3)C2C)OCO4)c1O (stereo not given)', 'RPMI-8226 leukemia', 'log10 of TGI', 1.30),
  ('CCOC(=O)/C(=C\c1ccc(CO)o1)P(=O)(OCC)OCC', 'RPMI-8226 leukemia', 'log10 of TGI', 1.96),
  ('Cc1ccc2c3c1O[C@H]1c4nc5ccccc5cc4C[C@@]4(O)[C@@H](C2)N(CC2CC2)CC[C@]314', 'RPMI-8226 leukemia', 'log10 of TGI', 1.40),
  ('OC1CCC(Oc2cccc3cnc(Nc4ccc5nc[nH]c5c4)nc23)CC1 (stereo not given)', 'RPMI-8226 leukemia', 'log10 of TGI', -0.18);

Input line: What measured log10 of TGI goes with O=C1C=C(c2cc(Br)c(O)c(Br)c2)/C(=C/c2cc(Br)c(O)c(Br)c2)O1 ?
Output line: 1.82

---

Please provide measured TGI for the entries that follow.
# Tested on: TK-10 renal
# Test: NCI tumour cell line growth inhibition, 48 h

Example cases with answers are listed next.
INSERT INTO measurements (molecule, reported_measurement) VALUES
  ('Cc1cc2occ(C)c(=O)c2c2c1OC(C)(C)S2', '> 100 µM'),
  ('O=C(CCCC(=O)N1CC(CCl)c2ccc([N+](=O)[O-])cc21)N1CC(CCl)c2ccc([N+](=O)[O-])cc21 (configuration not stated)', '> 100 µM'),
  ('CCCCc1cc(O)ccc1O', '42.8 µM'),
  ('O=C1CC(O)c2c(Cl)sc(Cl)c21 (configuration not stated)', '30.1 µM');

Below are 2 molecules. Give each one its TGI.
1. c1cncc(C2c3[nH]c4ccccc4c3CCN2CCN2CCCCC2)c1 (configuration not stated)
2. CN(C)c1ccc(/C=N/NC2=N/C(=C\c3ccco3)C(=O)N2)cc1

Output line:
> 100 µM
> 100 µM

Below are 5 molecules. Give each one its TGI.
1. O=C1/C(=C\c2cccs2)Oc2ccccc21
2. CCCc1ccc(N=Cc2cc(OC)c(OC)c(OC)c2)cc1
3. CCOC(=O)/C(C1=CC(=O)C(=O)c2ccccc21)=C(/C)NCc1ccccc1
4. CC(SC1=CC(=O)c2c(O)ccc(O)c2C1=O)C(=O)O (configuration not stated)
5. OCCCNCc1ccccn1

Output line:
["> 100 µM", "> 100 µM", "3.51 µM", "> 82.2 µM", "> 100 µM"]

Input line: Query the reported TGI for TK-10 renal; item: COC(=O)/C=C1/OC(c2ccccc2)=C(Cl)C1=O
Output line: 51.6 µM

---

# System: CCRF-CEM leukemia
# Test: NCI tumour cell line growth inhibition, 48 h
Endpoint Label: TGI

Example cases with answers are listed next.
INSERT INTO assay_data (compound, target, endpoint_label, reported_measurement) VALUES
  ('O=C(O)c1nnsc1COCc1ccccc1', 'CCRF-CEM leukemia', 'TGI', '> 100 µM'),
  ('NC1CCC(c2cc3ccccc3s2)(N2CCCCC2)CC1 (stereo unspecified)', 'CCRF-CEM leukemia', 'TGI', '2.45 µM'),
  ('CC(NC(=O)c1ccc(OP(=O)(OCC2=CC(=O)c3ccccc3C2=O)N(C)CCCCCl)cc1)c1ccc(OCC2CCCCC2)c(C(N)=O)c1 (stereo unspecified)', 'CCRF-CEM leukemia', 'TGI', '30.6 µM');

Below are 2 compounds. Give each one its TGI.
1. Fc1cccc2nc(-c3ccccc3)cc(OCc3ccccc3)c12
2. COC(=O)c1c(O)ccc2c1c1c(n2C)C(=O)c2ccccc2C1=O

Output line:
1. > 100 µM
2. 51.9 µM

Below are 4 compounds. Give each one its TGI.
1. CCCCc1cc(O)ccc1O
2. CN(C)CCOc1ccc(-c2c(Oc3ccc(Cl)cc3)c(=O)oc3ccccc23)cc1
3. CN(C)CCNC(=O)c1cc([N+](=O)[O-])cc2ccc(-c3ccccc3)nc12
4. Cn1c(=O)c2c(nc3n2CCC(=O)N3)n(C)c1=O

Output line:
1: 60.6 µM; 2: > 29 µM; 3: 13.6 µM; 4: > 100 µM

Below are 2 compounds. Give each one its TGI.
1. COc1cc2ccc3c4cc(OC)c(OCc5ccccc5)cc4cnc3c2cc1OC
2. C=C(Br)CN(C#N)CC(=C)Br

Output line:
> 100 µM
> 100 µM

---

# Test system: IGROV1 ovarian
# Test: NCI tumour cell line growth inhibition, 48 h
Please provide measured TGI for the entries that follow.

Example cases with answers are listed next.
INSERT INTO measurements (compound, target, reported_measurement) VALUES
  ('CC(NCCS(=O)(=O)O)C(=O)O (stereo unspecified)', 'IGROV1 ovarian', '> 100 µM'),
  ('Cn1cnc([N+](=O)[O-])c1Sc1ncnc2nc[nH]c12', 'IGROV1 ovarian', '> 100 µM'),
  ('COc1cc(C(C#N)NNC(=O)c2ccccc2O)ccc1O (stereo unspecified)', 'IGROV1 ovarian', '> 100 µM'),
  ('O=[N+]([O-])C(=C(NCc1ccccc1)NCc1ccccc1)C(Cl)=C(Cl)Cl', 'IGROV1 ovarian', '> 100 µM'),
  ('CC(Nc1cc(Cl)cc(Cl)c1)c1ccncc1 (stereo unspecified)', 'IGROV1 ovarian', '31.8 µM'),
  ('N#C/C(=C(\O)C(=O)O)c1ccc(-c2cccc3ccccc23)cc1', 'IGROV1 ovarian', '> 100 µM'),
  ('COc1cc2c(cc1OCCCC(=O)Nc1cc(C(=O)Nc3cc(C(=O)NCCCN(C)C)n(C)n3)n(C)n1)N=CC1CCCN1C2=O (stereo unspecified)', 'IGROV1 ovarian', '28.2 µM'),
  ('O=C(c1ccco1)N(C(=S)N1CCN(c2ccccc2)CC1)c1ccccc1', 'IGROV1 ovarian', '> 100 µM');

Below are 8 compounds. Give each one its TGI.
1. CCCCCCCCOCC1S(=O)(=O)OCCOS1(=O)=O
2. c1cc(-c2sc(-c3ccncc3)c(-c3ccncc3)c2-c2ccncc2)ccn1
3. ClCCn1cnc2c(SCc3ccccc3)ncnc21
4. CC1=CC[C@@H]2C(C)(C)[C@@H](O)CC[C@@]2(C)[C@@H]1COc1ccc2ccc(=O)oc2c1
5. O=C(O)c1nnsc1COCc1ccccc1
6. Cc1ccc2[nH]c(=O)c(-c3cnc(=O)[nH]n3)c(O)c2c1
7. Cc1ccc(N2C(=O)C(Cl)=C(Nc3cccc(O)c3)C2=O)cc1Cl
8. CC1=C(N2CC2)C(=O)c2nc3n(c2C1=O)CCC3O (stereo unspecified)

Output line:
["> 100 µM", "> 100 µM", "10.7 µM", "22 µM", "> 100 µM", "> 100 µM", "> 100 µM", "1.2 µM"]

---

# System: HCC-2998 colon
# Test: NCI tumour cell line growth inhibition, 48 h
Please provide measured TGI for the entries that follow.
Answers are plain numbers, in µM.

Below are 4 compounds. Give each one its TGI.
1. O=C1Cc2c(-c3ccccc3)cc(-c3cccc(Cl)c3)nc2-c2ccccc2N1
2. COc1cccc2c(=O)c3c(sc12)c(NCCCN)nc1ccccc13
3. COc1ccc(N=C/C=C/Nc2ccc(OC)cc2)cc1
4. CN(C)CCNC(=O)c1cc([N+](=O)[O-])cc2ccc(-c3ccccc3)nc12

Output line:
1: 7.76; 2: 3.26; 3: 22.1; 4: 20.3

---

# Tested on: DLD-1 colon
# Test: NCI tumour cell line growth inhibition, 48 h
Please provide measured TGI for the entries that follow.

Example cases with answers are listed next.
INSERT INTO results (molecule, reported_measurement) VALUES
  ('O=C(N=Nc1c(O)[nH]c2ccccc12)c1ccccc1O', '> 100 µM'),
  ('CCOC(=O)/C=C(/CN1C(=O)c2ccccc2C1=O)c1ccccc1', '> 100 µM'),
  ('Cn1c2ccccc2n2c3nc4ccccc4nc3c(C#N)c12', '> 100 µM'),
  ('CC1(C)OC2C(=O)OC(COCc3ccccc3)C2O1 (stereo unspecified)', '> 100 µM'),
  ('O=c1oc2c3ccc4ccccc4c3n(Cc3nc4ccccc4[nH]3)c2c2ccccc12', '> 100 µM'),
  ('COc1ccc(/C=[N+](\[O-])[C@H](COCc2ccccc2)c2ccccc2)cc1', '> 100 µM'),
  ('Cc1ccc(-n2c(C)nc3c2C(=O)c2ccccc2C3=O)cc1', '> 100 µM'),
  ('Cc1c2ncccc2c(C)c2c1[nH]c1ccccc12', '23.2 µM'),
  ('COC(=O)c1ccc(OCc2ccc3oc(=O)c(-c4ccccc4)nc3c2)cc1', '38.4 µM'),
  ('CC(=O)O/C(C)=C\C(=O)O/N=C(\N)c1ccc(C)cc1', '50.9 µM');

# context switch: different molecule, same TGI
Input line: What measured TGI goes with O=C(c1ccco1)N(C(=S)N1CCN(c2ccccc2)CC1)c1ccccc1 ?
Output line: > 100 µM
